# TARGET_UNDER_TEST: DAT (Mus musculus)
READOUT_TYPE: Ki (nM)
Express your answer in nM, writing the number without its unit.

Quote Ki reported for Fc1ccc(C(OCCN2CCN(CCCc3ccccc3)CC2)c2ccc(F)cc2)cc1 please.
1

====

# TARGET_UNDER_TEST: DAT (Mus musculus, UniProt Q61327)
# Sequence (Q61327 whole entry): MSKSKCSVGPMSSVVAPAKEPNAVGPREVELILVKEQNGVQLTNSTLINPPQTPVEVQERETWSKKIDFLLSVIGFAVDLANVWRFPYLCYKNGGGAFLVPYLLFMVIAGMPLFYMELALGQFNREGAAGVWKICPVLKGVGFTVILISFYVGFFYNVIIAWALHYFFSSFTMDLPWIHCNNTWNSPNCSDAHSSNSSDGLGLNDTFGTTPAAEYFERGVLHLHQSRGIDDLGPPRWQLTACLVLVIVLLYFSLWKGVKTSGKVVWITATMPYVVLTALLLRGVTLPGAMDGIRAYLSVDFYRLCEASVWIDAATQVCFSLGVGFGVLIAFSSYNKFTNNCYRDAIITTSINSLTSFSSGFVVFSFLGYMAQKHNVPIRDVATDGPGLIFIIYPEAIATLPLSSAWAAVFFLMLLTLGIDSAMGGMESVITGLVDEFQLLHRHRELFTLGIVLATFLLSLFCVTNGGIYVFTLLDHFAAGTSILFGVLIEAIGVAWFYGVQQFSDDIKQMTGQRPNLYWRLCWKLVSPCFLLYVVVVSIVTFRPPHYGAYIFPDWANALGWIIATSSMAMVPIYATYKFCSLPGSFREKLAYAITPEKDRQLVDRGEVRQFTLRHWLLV
READOUT_TYPE: Kd (nM)
Express your answer in nM, writing the number without its unit.

Under DAT (Mus musculus, UniProt Q61327), report Kd for COC(=O)[C@H]1[C@@H](c2ccc(F)cc2)C[C@@H]2CC[C@H]1N2C [[^3H]WIN35,428]
7.8
